tested on: PCSK9 secretion; test: PCSK9 secretion in HepG2 cells; type: cell-based; conditions: Homo sapiens; HepG2 cells; read-out: IC50-A inhibition of PCSK9 secretion
reportedProperty: IC50 (µM)

In [3]: df
Out[3]:
                                   molecule  reportedproperty  unitstring  observedmeasurement
0  CCc1c(C2CC2c2ccc(OC)cc2)n(S(=O)(=O)c2ccc(C)cc2)c2ccccc12 (stereo not shown) [10g]              IC50          µM                  0.7
1  Cc1ccc(S(=O)(=O)n2c([C@H]3C[C@H]3c3ccc4c(c3)OCO4)c(C)c3ccccc32)cc1              IC50          µM                  9.9
2  Cc1ccc(S(=O)(=O)n2c([C@@H]3CC3c3ccccc3)c(C)c3ccccc32)cc1 (stereo in doubt)              IC50          µM                   21
3  COc1ccc(C2C[C@@H]2c2c(C)c3ccccc3n2S(=O)(=O)c2ccc(C)cc2)cc1 (stereo in doubt)              IC50          µM                  1.8
